# target-or-system: Angiotensin II receptor (Rattus norvegicus, UniProt P29089+P25095+P35351)
# assay-summary: Tested for inhibition of radioligand [Sar1,Ile5,8]AII binding to angiotensin II receptor in rat uterus
Rule: measured Ki below 2 nM gets True; anything equal to or greater than 2 nM gets False.

>  <line-notation>
CNCC(=O)N[C@@H](CCCN=C(N)N)C(=O)N[C@H](C(=O)N[C@@H](Cc1ccc(O)cc1)C(=O)N[C@H](C(=O)N[C@@H](Cc1c[nH]cn1)C(=O)N1CCC[C@H]1C(=O)N[C@@H](C(=O)O)C(c1ccccc1)c1ccccc1)C(C)C)C(C)C

>  <target-or-system>
Angiotensin II receptor (Rattus norvegicus, UniProt P29089+P25095+P35351)

>  <assigned-class>
False

$$$$
>  <line-notation>
CNCC(=O)N[C@@H](CCCN=C(N)N)C(=O)N[C@H](C(=O)N[C@@H](Cc1ccc(O)cc1)C(=O)N[C@H](C(=O)N[C@@H](Cc1c[nH]cn1)C(=O)N1CCC[C@H]1C(N)=O)C(C)C)C(C)C

>  <target-or-system>
Angiotensin II receptor (Rattus norvegicus, UniProt P29089+P25095+P35351)

>  <assigned-class>
False

$$$$
>  <line-notation>
CNCC(=O)N[C@@H](CCCN=C(N)N)C(=O)N[C@H](C(=O)N[C@@H](Cc1ccc(O)cc1)C(=O)N[C@H](C(=O)N[C@@H](Cc1c[nH]cn1)C(=O)N1CCC[C@H]1C(=O)N[C@H](C(=O)O)C(c1ccccc1)c1ccccc1)C(C)C)C(C)C

>  <target-or-system>
Angiotensin II receptor (Rattus norvegicus, UniProt P29089+P25095+P35351)

>  <assigned-class>
True

$$$$
>  <line-notation>
CNCC(=O)N[C@@H](CCCN=C(N)N)C(=O)N[C@H](C(=O)N[C@@H](Cc1ccc(O)cc1)C(=O)N[C@H](C(=O)N[C@@H](Cc1c[nH]cn1)C(=O)N1CCC[C@H]1C(=O)N[C@H](Cc1ccc(-c2ccccc2)cc1)C(=O)O)C(C)C)C(C)C

>  <target-or-system>
Angiotensin II receptor (Rattus norvegicus, UniProt P29089+P25095+P35351)

>  <assigned-class>
True

$$$$
>  <line-notation>
CNCC(=O)N[C@@H](CCCN=C(N)N)C(=O)N[C@H](C(=O)N[C@@H](Cc1ccc(O)cc1)C(=O)N[C@H](C(=O)N[C@@H](Cc1c[nH]cn1)C(=O)N1CCC[C@H]1C(=O)N[C@@H](Cc1ccc(-c2ccccc2)cc1)C(=O)O)C(C)C)C(C)C

>  <target-or-system>
Angiotensin II receptor (Rattus norvegicus, UniProt P29089+P25095+P35351)

>  <assigned-class>
True

$$$$

Here's the next entry for you.
Task item: Consider the compound "CNCC(=O)N[C@@H](CCCN=C(N)N)C(=O)N[C@H](C(=O)N[C@@H](Cc1ccc(O)cc1)C(=O)N[C@H](C(=O)N[C@@H](Cc1c[nH]cn1)C(=O)N1CCC[C@H]1C(=O)NC1(C(=O)O)Cc2ccccc2C1)C(C)C)C(C)C" . Is its Ki strictly less than 2 nM?
Reply: True

Taken from ChEMBL document CHEMBL1124659.
